TARGET_OR_SYSTEM: AAV5 (adeno-associated virus serotype 5)
ASSAY_REMARKS: SPR, AAV on CM5 chip
// reported kon per item
READOUT: kon (M⁻¹ s⁻¹)

A4-C5 (bispecific antibody) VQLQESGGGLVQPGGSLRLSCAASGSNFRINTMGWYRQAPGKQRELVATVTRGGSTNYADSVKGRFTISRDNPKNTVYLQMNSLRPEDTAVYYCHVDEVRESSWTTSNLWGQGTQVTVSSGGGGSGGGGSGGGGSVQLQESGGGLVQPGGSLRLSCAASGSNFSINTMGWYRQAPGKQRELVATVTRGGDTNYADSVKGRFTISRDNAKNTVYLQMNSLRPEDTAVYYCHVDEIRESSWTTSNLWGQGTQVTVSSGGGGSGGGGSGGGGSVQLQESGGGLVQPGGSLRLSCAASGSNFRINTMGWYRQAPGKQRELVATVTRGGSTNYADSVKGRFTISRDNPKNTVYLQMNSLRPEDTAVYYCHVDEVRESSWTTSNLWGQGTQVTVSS | 165000
A4-C6 (bispecific antibody) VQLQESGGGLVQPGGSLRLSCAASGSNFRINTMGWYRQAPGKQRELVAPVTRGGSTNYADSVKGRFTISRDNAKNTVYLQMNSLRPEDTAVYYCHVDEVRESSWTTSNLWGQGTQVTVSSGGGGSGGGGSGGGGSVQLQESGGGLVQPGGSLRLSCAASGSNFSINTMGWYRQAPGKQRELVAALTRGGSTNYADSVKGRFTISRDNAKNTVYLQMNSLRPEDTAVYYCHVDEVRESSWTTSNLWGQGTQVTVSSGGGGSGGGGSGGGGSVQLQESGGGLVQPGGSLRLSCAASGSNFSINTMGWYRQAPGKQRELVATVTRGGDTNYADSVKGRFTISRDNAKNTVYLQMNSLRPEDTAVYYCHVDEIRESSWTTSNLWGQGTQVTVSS | 177000
A4-C1 (VHH) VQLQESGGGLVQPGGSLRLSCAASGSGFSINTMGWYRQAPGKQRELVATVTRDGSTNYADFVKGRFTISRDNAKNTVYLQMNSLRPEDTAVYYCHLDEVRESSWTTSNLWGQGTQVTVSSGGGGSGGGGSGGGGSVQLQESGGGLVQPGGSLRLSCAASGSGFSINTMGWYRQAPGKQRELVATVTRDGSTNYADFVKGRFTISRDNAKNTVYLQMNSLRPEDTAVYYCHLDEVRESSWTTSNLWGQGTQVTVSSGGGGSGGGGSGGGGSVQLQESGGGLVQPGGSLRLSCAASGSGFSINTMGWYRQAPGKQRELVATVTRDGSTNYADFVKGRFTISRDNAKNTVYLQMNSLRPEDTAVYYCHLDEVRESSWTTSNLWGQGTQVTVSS | 104000
A4-C9 (bispecific antibody) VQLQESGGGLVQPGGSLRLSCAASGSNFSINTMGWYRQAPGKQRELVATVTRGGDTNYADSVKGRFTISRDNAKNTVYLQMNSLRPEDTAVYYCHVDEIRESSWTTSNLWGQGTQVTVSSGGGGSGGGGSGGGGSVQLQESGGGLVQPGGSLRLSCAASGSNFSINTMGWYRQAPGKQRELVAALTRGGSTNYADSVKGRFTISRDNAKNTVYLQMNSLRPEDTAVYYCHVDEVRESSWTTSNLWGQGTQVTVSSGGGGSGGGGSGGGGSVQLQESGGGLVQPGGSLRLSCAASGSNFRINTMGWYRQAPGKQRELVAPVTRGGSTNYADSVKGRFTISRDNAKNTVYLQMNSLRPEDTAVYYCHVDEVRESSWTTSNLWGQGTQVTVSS | 64300

All values here come from patent US20260193326A1.
